- System: 922993-354-T-J3-PDC complex spheroids, viability;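 further: spheroids exposed to compounds for seven days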
- protocol notes: Anticancer human tumor 922993-354-T-J3-PDC patient-derived endometrial carcinoma cell line growth inhibition [GQUAD]
- cond: curve of first compound; second compound 0.1 µM
observed property: IC50

Req: Write down the reported IC50 of CC[C@@]1(O)C(=O)OCc2c1cc1n(c2=O)Cc2cc3c(CN(C)C)c(O)ccc3nc2-1 + Cc1[nH]c2ccc(F)cc2c1-c1nc2c3cccnc3c3ncccc3c2[nH]1 , test system: 922993-354-T-J3-PDC complex spheroids, viability.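 Further: spheroids exposed to compounds for seven days.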
Resp: > 0.316 µM

Req: Missing value: IC50, 922993-354-T-J3-PDC complex spheroids, viability, entry CC1COCCN1c1cc(C2(S(C)(=N)=O)CC2)nc(-c2ccnc3[nH]ccc23)n1 (stereo not drawn) + Cc1[nH]c2ccc(F)cc2c1-c1nc2c3cccnc3c3ncccc3c2[nH]1 . Fill in?
Resp: > 10 µM

Req: Observed IC50 on 922993-354-T-J3-PDC complex spheroids, viability for C#Cc1c(F)ccc2cc(O)cc(-c3ncc4c(N5CC6CCC(C5)N6)nc(OCC56CCCN5CC(F)C6)nc4c3F)c12 (stereo not drawn) + Cc1[nH]c2ccc(F)cc2c1-c1nc2c3cccnc3c3ncccc3c2[nH]1 , please.
Resp: > 10 µM
